The values you see were collected from PubChem BioAssay AID1850.

- assayProcedure: PhoP regulon inhibitors, Salmonella typhi PhoP promoter GFP reporter, confirmatory (AID 1850);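 further: 0% = induced wells with vehicle and 100% = uninduced wells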
- experimentalParameters: fluorescence, 4 h, at 50 µM, hits give high values
About 1,000 (0.32%) of roughly 310,000 compounds were called active. The list is a sample of the results. Entries with a potency or affinity are not part of this list.
reportedMetric: inhibition (%)
Dear colleague, please return just the value in %, with no unit written.

The examples below pair each entry with its known result.
{"compound": "CCC(Oc1ccc(C)cc1)C(=O)Nc1ccc2c(c1)n(C)c(=O)n2C (centres undefined)", "val": -3.92}
{"compound": "O=C(Cn1cc([N+](=O)[O-])ccc1=O)NCc1ccc(Cl)cc1Cl", "val": -7.2}
{"compound": "CCc1ccc2c(CN(CC)Cc3nc4ccccc4c(=O)[nH]3)cc(=O)oc2c1", "val": 1.52}
{"compound": "CNNC(=S)Nc1cccc(C(F)(F)F)c1", "val": 6.82}
{"compound": "CCc1ccc2nc3nc(C)cc(C)c3c(N)c2c1", "val": -15}
{"compound": "CCc1nccn1CCC(=O)N1CCCC(Nc2ccc(F)cc2)C1 (centres undefined)", "val": -1.62}
{"compound": "CN(C)S(=O)(=O)c1cccc(-c2csc(=Nc3ccccc3)n2CCCN2CCOCC2)c1", "val": 4.21}
{"compound": "CCN(CC)CC(=O)Nn1c(C)nc2c(ncn2-c2ccccc2)c1=O", "val": 2.92}
{"compound": "Brc1ccc(CNCc2cccs2)cc1", "val": -4.52}
{"compound": "COc1ccc(S(=O)(=O)Nc2nc3ccccc3nc2NCC2CCCO2)cc1 (centres undefined)", "val": -1.23}

Please find the next compound below.
Query: Quick check: inhibition of Cc1ccc(C(=O)C(C)OC(=O)Cn2cnc3c2c(=O)n(C)c(=O)n3C)cc1 (centres undefined) ?
Reply: 2.25

* * *

- assayProcedure: PhoP regulon inhibitors, Salmonella typhi PhoP promoter GFP reporter, confirmatory (AID 1850);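 further: 0% = induced wells with vehicle and 100% = uninduced wells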
- experimentalParameters: fluorescence, 4 h, at 50 µM, hits give high values
About 1,000 (0.32%) of roughly 310,000 compounds were called active. A selection follows. Measured potencies and affinities stand elsewhere.
Quick list: inhibition per entry.
Report as a plain number; the unit % is understood.

Recorded results for 3 compounds are shown here.
{"compound": "CNCc1c(OCc2ccc(F)cc2)ccc2ccccc12", "measurementUnit": "%", "val": 20.5}
{"compound": "CCN1CCN(c2ccc(S(=O)(=O)N3CCCCC3)cc2NC(=O)c2ccccc2)CC1", "measurementUnit": "%", "val": -7.27}
{"compound": "CCOC(=O)C1(CCOC)CCN(Cc2ccncc2)CC1", "measurementUnit": "%", "val": -5.83}

Query: Suppose we examine the compound CCN(CCNC(=O)C1CCN(Cc2nc(-c3ccc(Cl)cc3)oc2C)CC1)c1ccccc1 ; what inhibition value has been reported?
Reply: 6.02

Query: Recorded inhibition of CSc1ccc(C2NC(=O)CCC2[N+](=O)[O-])cc1 (stereo unspecified) , please.
Reply: 9.78

Query: Quick one: inhibition for CNCc1c(OCc2ccccc2)ccc2ccccc12 ?
Reply: 15.5

Query: Need inhibition, item CCN1CCN(CCNC(=O)C2CCN(Cc3nc(-c4ccc(Cl)cc4)oc3C)CC2)CC1
Reply: 6.8

Query: Can you look up the measured inhibition of N#Cc1cc(NC(=O)c2ccc(F)cc2)c(=O)n2c1[nH]c1ccccc12 for me?
Reply: -0.7

Query: State the recorded inhibition for this entry: CC(O)(C#CCN1CCCC1)c1ccccc1 (stereo unspecified)
Reply: -6.56

Query: Field request: inhibition | item: Cc1oc(-c2cccc(Cl)c2)nc1CN1CCC(C(=O)NCC2CCCO2)CC1 (stereo unspecified)
Reply: 1.34

Query: May I ask what inhibition has been recorded for O=C(C1CCCN(S(=O)(=O)c2cccc3nonc23)C1)N1CCN(c2cccc(Cl)c2)CC1 (stereo unspecified) ?
Reply: 2.17

* * *

Documented inhibition across a set of compounds
- assayProcedure: PhoP regulon inhibitors, Salmonella typhi PhoP promoter GFP reporter, confirmatory (AID 1850);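 further: 0% = induced wells with vehicle and 100% = uninduced wells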
- experimentalParameters: fluorescence, 4 h, at 50 µM, hits give high values
The campaign covered roughly 310,000 compounds. About 1,000 (0.32%) were called active. Not all results are given here. Potency and affinity values are given separately.
Kindly answer with a numeric value in %, unit omitted.

{"compound": "O=C(NCCc1ccccc1)C1CCC(=O)N1C1CCCC1 (stereo not given)", "inhibition (%)": 2.78}

Query: What measured inhibition goes with CN(C)CCCNC(=O)/C(=C/c1ccc(-c2ccc([N+](=O)[O-])cc2)o1)NC(=O)c1ccccc1 ?
Reply: 8.87

Query: Reported inhibition for Cc1ccc(C(=O)N/C(=C\c2ccc(-c3ccccc3[N+](=O)[O-])o2)C(=O)NCCCN(C)C)cc1 : what is it?
Reply: -1.46

Query: Using the record for CN(C)CCNC(=O)/C(=C/c1ccc(-c2cccc(Cl)c2)o1)NC(=O)c1ccccc1 , report its inhibition.
Reply: 20.4

Query: Any idea what inhibition was measured for CCCCNC(=O)c1cccc(NC(=O)C(=O)c2ccccc2NC(C)=O)c1 ?
Reply: 0.04

* * *

- assayProcedure: PhoP regulon inhibitors, Salmonella typhi PhoP promoter GFP reporter, confirmatory (AID 1850);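 further: 0% = induced wells with vehicle and 100% = uninduced wells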
- experimentalParameters: fluorescence, 4 h, at 50 µM, hits give high values
Among all 310,000 compounds or so, about 1,000 (0.32%) were called active. These entries were drawn from the full list. Entries with a potency or affinity are not part of this list.
Below is a list of entries, each paired with its recorded inhibition value.
Kindly provide the numeric value in % only, without the unit symbol.

Consider the reported inhibition for these compounds:
{"compound": "COc1cccc(CNC(=O)CC(NC(=O)c2ccccc2)c2ccccc2)c1 (centres undefined)", "val": -2.43}
{"compound": "CN(C(=O)C1CCN(S(=O)(=O)c2cccs2)CC1)C1CCCCC1", "val": -11.4}
{"compound": "Clc1cccc(OCCOCCN2CCNCC2)c1Cl", "val": 6.19}

Query: Given O=C(Nc1nnc(-c2ccco2)o1)c1ccc(Cl)cc1 , state its recorded inhibition.
Reply: 0.38

Query: Which inhibition reading was recorded for the compound CN1CCN(CCOC2Cc3ccccc3Sc3ccc(Cl)cc32)CC1 (centres undefined) ?
Reply: -19.4

Query: I have this compound here, Cc1ccc2nc(C)cc(N/N=C/c3cccc(O)c3)c2c1 , and I need its recorded inhibition.
Reply: -4.26

Query: Item under review: Cc1ccc(CN2CCCN(Cc3ccc(F)cc3Cl)S2(=O)=O)cc1 . Reported inhibition?
Reply: 0.28

Query: So what does the record say about inhibition for COc1cccc2c(N/N=C/c3ccccc3)cc(C)nc12 ?
Reply: 0.63

Query: So what's the measured inhibition for this one? CCCN1C(=O)c2ccccc2NC1c1cc(OC)c(OC)c(OC)c1 (centres undefined)
Reply: 4.01

Query: inhibition; subject: COc1cc(C)ccc1N(CCCN1C(=O)c2cccc3cccc(c23)C1=O)C(=O)c1cccs1
Reply: -7.11

Query: Field request: inhibition | item: O=C(Nc1nnc(-c2ccccn2)o1)c1cccc(Br)c1
Reply: 3.24

Query: Quick one: inhibition for CCOc1ccccc1NC(=O)c1cc(-c2cc(OC)c(OC)c(OC)c2)nc2ccccc12 ?
Reply: 6.2

Query: Which inhibition reading was recorded for the compound Cc1cc(C(=O)CC#N)c(C)n1-c1ccc(OC(F)F)cc1 ?
Reply: -0.727

Query: inhibition for O=C(CN1CCC(C(O)(c2ccccc2)c2ccccc2)CC1)Nc1cc(Cl)ccc1Cl ?
Reply: -20

Query: Consider the compound shown here: CNCc1ccccc1OCC(=O)Nc1ccccc1 What is its recorded inhibition?
Reply: -6

Query: Requested field: inhibition. Item: CN1CCCC(CC2Oc3ccccc3Sc3ccccc32)C1 (centres undefined)
Reply: 11.3

Query: # inhibition lookup, item Fc1ccc2c(c1)Sc1ccc(Cl)cc1CC2N1CCN(CCC2OCCO2)CC1 (centres undefined)
Reply: 12.3

Query: Requested field: inhibition. Item: COc1ccc2c(c1)CC(N1CCN(C)CC1)c1cc(OC)ccc1S2 (centres undefined)
Reply: 21.4

Query: Record request: inhibition value, item COCCCN1CCN(C2Cc3ccccc3Sc3ccc(Cl)cc32)CC1 (centres undefined)
Reply: 1.9

Query: Would you mind telling me what inhibition value was observed for O=c1[nH]cc(NCCc2ccccc2)c(=O)[nH]1 ?
Reply: 2.68

Query: Param item = COc1ccc(NC2CCCN(C(=O)C3=NN(C)C(=O)CC3)C2)cc1OC (centres undefined) ; retrieve measured inhibition.
Reply: -1.12

Query: Would you kindly share the measured inhibition for Clc1ccccc1OCCCCN1CCCCC1 ?
Reply: -2.94

Query: Endpoint output: inhibition of Cc1ccc(Nc2cc(C)nc3ccccc23)c(C)c1 . Value?
Reply: 10.4

Query: For the compound shown here, c1ccc(C(c2ccccc2)N2CCN(Cc3nc(-c4cnccn4)no3)CC2)cc1 , give the reported inhibition.
Reply: -8.94
